# maps each entry to its log10 CC50
Test system: A549 cells
protocol description: Cytotoxicity assay (AlamarBlue)
condition description: read-out: CC50 (μM), cytotoxic concentration 50%; A549 cell line, 48 h
quantity kind: log10 CC50 (log10 of the value in µM)

given smiles	target or system	quantity kind	number
O=C(Nc1ccc(NCc2ccc(Br)s2)cc1Cl)c1cc(Cl)ccc1O	A549 cells	log10 CC50	1.32
CC(C)Nc1ccc(NC(=O)c2cc(Cl)ccc2O)c(Cl)c1	A549 cells	log10 CC50	1.04
O=C(N[C@@H](Cc1ccccc1)C(=O)Nc1ccc([N+](=O)[O-])cc1Cl)c1cc(Cl)ccc1O	A549 cells	log10 CC50	1.18
O=C(Nc1ccc(N(CCCO)CCCO)cc1Cl)c1cc(Cl)ccc1O	A549 cells	log10 CC50	2.06
CC(C)(C)OC(=O)NCCNc1ccc(NC(=O)c2cc(Cl)ccc2O)c(Cl)c1	A549 cells	log10 CC50	1.40
O=C(N[C@H](Cc1ccccc1)C(=O)Nc1ccc([N+](=O)[O-])cc1Cl)c1cc(Cl)ccc1O	A549 cells	log10 CC50	1.89
O=C(Cc1cc(Cl)ccc1O)Nc1cc(F)cc(C(F)(F)F)c1	A549 cells	log10 CC50	1.37
CC1(ON(c2ccc(NC(=O)c3cc(Cl)ccc3O)c(Cl)c2)C2(C)CCCC2)CCCC1	A549 cells	log10 CC50	1.26
O=C(NCc1ccc(C(F)(F)F)cc1)c1cc(Cl)ccc1O	A549 cells	log10 CC50	1.38

----------
Tested on: HAdV5-GFP
protocol description: Entry assay (HAdV5-mediated GFP expression)
Format: cell-based, HAdV-5
condition description: HAdV5-GFP, high MOI, A549 cell line; read-out: IC50 Entry Assay
pIC50: −log10 of the molar value.

compound	pIC50
O=C(Nc1ccc([N+](=O)[O-])cc1Cl)c1cc(Cl)ccc1O [Compound 6, niclosamide, reference compound]	5.91

----------
# maps each entry to its inhibition at 10 µM
Test system: HAdV5-GFP
protocol description: Plaque assay (inhibition of HAdV plaque formation)
Format: cell-based, HAdV-5
condition description: read-out: Plaque Assay (%) Inhibition (10 μM)
quantity kind: inhibition at 10 µM (%)

compound	target or system	number
C[C@H](NC(=O)c1cc(Cl)ccc1O)c1ccccc1	HAdV5-GFP	100
O=C(Cc1cc(Cl)ccc1O)Nc1cc(F)cc(C(F)(F)F)c1	HAdV5-GFP	91
CN1CCC(CNc2ccc(NC(=O)c3cc(Cl)ccc3O)c(Cl)c2)CC1	HAdV5-GFP	0
CC(C)(Cc1ccccc1)ON(c1ccc(NC(=O)c2cc(Cl)ccc2O)c(Cl)c1)C(C)(C)Cc1ccccc1	HAdV5-GFP	100
O=C(NCc1ccc([N+](=O)[O-])cc1)c1cc(Cl)ccc1O	HAdV5-GFP	99.5
CCCCCCCCC(C)Nc1ccc(NC(=O)c2cc(Cl)ccc2O)c(Cl)c1 (stereo not drawn)	HAdV5-GFP	100
O=C(NC1CCOCC1)c1cc(Cl)ccc1O	HAdV5-GFP	0
O=C(Nc1ccc(NCc2ccccc2)cc1Cl)c1cc(Cl)ccc1O	HAdV5-GFP	100
O=C(Nc1ccc(NCCN2CCOCC2)cc1Cl)c1cc(Cl)ccc1O	HAdV5-GFP	1.4
CC(C)(CCO)Nc1ccc(NC(=O)c2cc(Cl)ccc2O)c(Cl)c1	HAdV5-GFP	92.3
O=C(Cc1cc(Cl)ccc1O)Nc1ccc(NC2CCCC2)cc1Cl	HAdV5-GFP	85.8
O=C(Nc1ccc(NC2CCCC2)cc1Cl)c1cccc(Cl)c1	HAdV5-GFP	82.9
O=C(NCc1ccccc1)c1cc(Cl)ccc1O [Compound 45, N-Benzyl-5-chloro-2-hydroxybenzamide]	HAdV5-GFP	12.7
O=C(NCc1ccc(C(F)(F)F)cc1F)c1cc(Cl)ccc1O	HAdV5-GFP	98.8
COc1ccc(CNc2ccc(NC(=O)c3cc(Cl)ccc3O)c(Cl)c2)cc1	HAdV5-GFP	100
O=C(Nc1ccc(NCc2cccnc2Cl)cc1Cl)c1cc(Cl)ccc1O	HAdV5-GFP	100
O=C(Nc1ccc(NCc2cc(C(F)(F)F)cc(C(F)(F)F)c2)cc1Cl)c1cc(Cl)ccc1O	HAdV5-GFP	100
CCN(CC)c1ccc(NC(=O)c2cc(Cl)ccc2O)c(Cl)c1	HAdV5-GFP	100

----------
System: HAdV5-GFP
protocol description: Plaque assay (inhibition of HAdV plaque formation)
Type: cell-based, HAdV-5
condition description: read-out: Plaque Assay (%) Inhibition (10 μM)
# maps each entry to its inhibition at 10 µM

given smiles	target or system	inhibition at 10 µM [%]
O=C(Cc1cc(Cl)ccc1O)Nc1ccc([N+](=O)[O-])cc1Cl	HAdV5-GFP	0
CN1CCN(C(=O)c2cc(Cl)ccc2O)CC1	HAdV5-GFP	0
O=C(Nc1cc(F)cc(C(F)(F)F)c1)c1ccc(Cl)cc1O	HAdV5-GFP	96.8
CN(C)c1ccc(NC(=O)c2cc(Cl)ccc2O)c(Cl)c1	HAdV5-GFP	100
O=C(Nc1ccc(NCc2ccncc2)cc1Cl)c1cc(Cl)ccc1O	HAdV5-GFP	100
O=C(Nc1ccc(NCc2cccc(Br)n2)cc1Cl)c1cc(Cl)ccc1O	HAdV5-GFP	100
CN1CCN(CCNC(=O)c2cc(Cl)ccc2O)CC1	HAdV5-GFP	0
Cc1ccc(CNC(=O)c2cc(Cl)ccc2O)cc1	HAdV5-GFP	96.6
O=C(NCc1ccc(Cl)cc1Cl)c1cc(Cl)ccc1O	HAdV5-GFP	99.2
O=C(Nc1cc(F)cc(C(F)(F)F)c1)c1ccccc1O	HAdV5-GFP	98.7

----------
Test system: HAdV5-GFP
protocol description: Plaque assay (inhibition of HAdV plaque formation)
Type: cell-based, HAdV-5
condition description: ratio of CC50 to IC50 in plaque assay
Selectivity index (SI) below 30 gives 0 (no); Selectivity index (SI) at or above it gives 1 (yes).

given smiles	class label
O=C(CNC(=O)c1cc(Cl)ccc1O)Nc1ccc([N+](=O)[O-])cc1Cl	1 (yes)
CN(C)c1ccc(CNc2ccc(NC(=O)c3cc(Cl)ccc3O)c(Cl)c2)cc1	0 (no)
CC(C)[C@H](NC(=O)c1cc(Cl)ccc1NS(C)(=O)=O)C(=O)Nc1ccc([N+](=O)[O-])cc1Cl	1 (yes)
O=C(Nc1ccc(NCc2cccc(C(F)(F)F)c2)cc1Cl)c1cc(Cl)ccc1O	0 (no)
C[C@H](NC(=O)c1cc(Cl)ccc1O)C(=O)Nc1ccc([N+](=O)[O-])cc1Cl	0 (no)
CC(C)(C)OC(=O)NCCNc1ccc(NC(=O)c2cc(Cl)ccc2O)c(Cl)c1	0 (no)
O=C(Nc1ccc(NCc2ccc(O)nc2)cc1Cl)c1cc(Cl)ccc1O	1 (yes)
CC(C)[C@H](NC(=O)c1cc(Cl)ccc1O)C(=O)Nc1cc(F)cc(C(F)(F)F)c1	1 (yes)
CC(C)(C)OC(=O)N1CCC(Nc2ccc(NC(=O)c3cc(Cl)ccc3O)c(Cl)c2)CC1	1 (yes)
O=C(Nc1ccc(NCc2ccc(Cl)cc2)cc1Cl)c1cc(Cl)ccc1O	1 (yes)
O=C(Nc1ccc(NCc2ccc(F)cc2)cc1Cl)c1cc(Cl)ccc1O	0 (no)
O=C(Nc1ccc(NCC2CCCC2)cc1Cl)c1cc(Cl)ccc1O	0 (no)
O=C(N[C@@H](Cc1ccccc1)C(=O)Nc1cc(C(F)(F)F)cc(C(F)(F)F)c1)c1cc(Cl)ccc1O	1 (yes)
COc1ccc(CNc2ccc(NC(=O)c3cc(Cl)ccc3O)c(Cl)c2)cc1	0 (no)
O=C(Nc1ccc(NC2CCCC2)cc1)c1cc(Cl)ccc1O	0 (no)
O=C(NCc1ccc(F)cc1Cl)c1cc(Cl)ccc1O	0 (no)
CC(C)[C@H](NC(=O)c1cc(Cl)ccc1O)C(=O)Nc1ccc([N+](=O)[O-])cc1Cl	1 (yes)

----------
Test system: HAdV5-GFP
protocol description: Plaque assay (inhibition of HAdV plaque formation)
Assay type: cell-based, HAdV-5
condition description: ratio of CC50 to IC50 in plaque assay

compound	qualifier	Selectivity index (SI)
O=C(Nc1cc(C(F)(F)F)cc(C(F)(F)F)c1)c1cc(Cl)ccc1O	=	68.3
CC[C@@H](C)[C@H](NC(=O)c1cc(Cl)ccc1O)C(=O)Nc1ccc([N+](=O)[O-])cc1Cl	=	127.6
O=C(Nc1ccc(NCC2CC2)cc1Cl)c1cc(Cl)ccc1O	=	10.4
O=C(NCc1ccc([N+](=O)[O-])cc1)c1cc(Cl)ccc1O	=	26.7
CC(C)[C@H](NC(=O)c1cc(Cl)ccc1O)C(=O)Nc1cc(C(F)(F)F)cc(C(F)(F)F)c1	=	77.4
O=C(Nc1ccc(N(CC2CC2)CC2CC2)cc1Cl)c1cc(Cl)ccc1O	=	20.7
CS(=O)(=O)Nc1ccc(Cl)cc1C(=O)NCC(=O)Nc1ccc([N+](=O)[O-])cc1Cl	=	14.6
O=C(Nc1ccc(NC2CCCCC2)cc1Cl)c1cc(Cl)ccc1O	=	51.1
O=C(Nc1cc(F)cc(C(F)(F)F)c1)c1cc(Cl)ccc1O	=	666.7
O=C(Nc1cc(F)cc(C(F)(F)F)c1)c1ccc(Cl)cc1O	=	186.8
O=C(NCc1ccc(NC2CCCC2)cc1Cl)c1cc(Cl)ccc1O	=	3.6
O=C(NCC1CCCCC1)c1cc(Cl)ccc1O	>	100
O=C(Nc1ccc(NCc2ccc3cn[nH]c3c2)cc1Cl)c1cc(Cl)ccc1O	=	9.7
Cc1ccc(CNC(=O)c2cc(Cl)ccc2O)cc1	=	10.8
O=C(N[C@H](Cc1ccccc1)C(=O)Nc1ccc([N+](=O)[O-])cc1Cl)c1cc(Cl)ccc1O	=	259.7
O=C(Nc1ccc([N+](=O)[O-])cc1F)c1cc(Cl)ccc1O	=	218.2
O=C(Nc1ccc(NCc2ccncc2)cc1Cl)c1cc(Cl)ccc1O	=	24.6
CCCCCCCCC(C)Nc1ccc(NC(=O)c2cc(Cl)ccc2O)c(Cl)c1 (stereo not drawn)	=	18.1
O=C(Cc1cc(Cl)ccc1O)Nc1cc(F)cc(C(F)(F)F)c1	=	4.8
Cc1ccc(O)c(C(=O)Nc2ccc(NC3CCCC3)cc2Cl)c1	=	11.4
O=C(Nc1ccc(NCc2ccc(O)cc2)cc1Cl)c1cc(Cl)ccc1O	=	104.1
CC(C)CNc1ccc(NC(=O)c2cc(Cl)ccc2O)c(Cl)c1	=	67.4
O=C(Nc1ccc(NCc2ccccc2)cc1Cl)c1cc(Cl)ccc1O	=	7.8
CC(C)(Cc1ccccc1)ON(c1ccc(NC(=O)c2cc(Cl)ccc2O)c(Cl)c1)C(C)(C)Cc1ccccc1	=	129.7
C[C@H](NC(=O)c1cc(Cl)ccc1O)c1ccccc1	=	78.5
CC(C)Nc1ccc(NC(=O)c2cc(Cl)ccc2O)c(Cl)c1	=	12.5
O=C(Nc1ccc(NCc2cnccc2Cl)cc1Cl)c1cc(Cl)ccc1O	=	75.7
CC(C)(C)OC(=O)N1CCC(CNc2ccc(NC(=O)c3cc(Cl)ccc3O)c(Cl)c2)CC1	=	102.2
O=C(NCc1cc(F)cc(C(F)(F)F)c1)c1cc(Cl)ccc1O	=	15.1
CCCCCCC(C)Nc1ccc(NC(=O)c2cc(Cl)ccc2O)c(Cl)c1 (stereo not drawn)	=	73.4
O=C(Nc1ccc(NCc2ccc(Br)cc2)cc1Cl)c1cc(Cl)ccc1O	=	22.2
CCNc1ccc(NC(=O)c2cc(Cl)ccc2O)c(Cl)c1	=	13.9
O=C(Nc1ccc(NCc2cccnc2Cl)cc1Cl)c1cc(Cl)ccc1O	=	21.0
CCN(CC)c1ccc(NC(=O)c2cc(Cl)ccc2O)c(Cl)c1	=	64.5
O=C(Nc1ccc(NCc2cc(F)cc(C(F)(F)F)c2)cc1Cl)c1cc(Cl)ccc1O	=	26.7
CC1(ON(c2ccc(NC(=O)c3cc(Cl)ccc3O)c(Cl)c2)C2(C)CCCC2)CCCC1	=	24.3
